# Tested on: CDC2L2
# setup.conditions: concentration: 1 μM,replicates: in singlicate; n = 1;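 further: KINOMEscan kinase panel screen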
measurement.kind: %Inh (%)
Numeric answer only, unit % assumed.

Response field %Inh (CDC2L2) for item `CC(C)c1nc(-c2cccc(NS(=O)(=O)c3ccccc3)c2)c(-c2ccnc(Nc3ccc4c(c3)CN(C)CC4)n2)s1` : 24

Response field %Inh (CDC2L2) for item N#Cc1cccc(C(=O)NC2CCN(c3ccnc(Nc4ccc(F)cc4)n3)C2)c1 (centres unmarked) : 0

Response field %Inh (CDC2L2) for item `Cn1ccc2ncnc(Oc3ccc(NC(=O)Nc4cnn(C(C)(C)C)c4)c(Cl)c3)c21` : 0

Response field %Inh (CDC2L2) for item `Cn1ccc2ncnc(Oc3ccc(NC(=O)Nc4cncc(C(F)(F)F)c4)c(Cl)c3)c21` : 0

Response field %Inh (CDC2L2) for item `Cn1ccc2ncnc(Oc3ccc(NC(=O)Nc4cccc(C(F)(F)F)c4)c(Cl)c3)c21` : 5

Response field %Inh (CDC2L2) for item `Cc1n[nH]c2cc(Nc3ccnc(Nc4cccc(CN5CCOCC5)c4)n3)ccc12` : 24

Response field %Inh (CDC2L2) for item `c1ccc(Oc2ccc(Nc3ccnc4ccc(-c5ccccn5)cc34)cc2)cc1` : 0

Response field %Inh (CDC2L2) for item `NC(=O)c1ccc(-c2cc3ncnc(SCC(=O)O)c3s2)cc1` : 0

Response field %Inh (CDC2L2) for item `CNC(=O)c1ccccc1Nc1nc(Nc2cccc(CS(C)(=O)=O)c2)ncc1C.O=CO` : 0

Response field %Inh (CDC2L2) for item `CN1CCN(CCCNc2nccc(-c3c(-c4ccc(F)cc4)nn4cc(C(N)=O)ccc34)n2)CC1` : 17

Response field %Inh (CDC2L2) for item `CCOC(=O)N1CCC(n2cnc(-c3ccc(F)cc3)c2-c2ccnc(N)n2)CC1` : 23

Response field %Inh (CDC2L2) for item `CCCC(=O)Nc1n[nH]c2ncccc12` : 0

Response field %Inh (CDC2L2) for item `Cn1ccc2ncnc(Oc3ccc(NC(=O)Nc4cc(C(C)(C)C)on4)c(Cl)c3)c21` : 4

Response field %Inh (CDC2L2) for item `OCCn1cc(-c2cnc3nnn(Cc4ccc5ncccc5c4)c3n2)cn1` : 0

Response field %Inh (CDC2L2) for item `FC(F)(F)c1cc(Br)cc(Nc2nccc(-c3cnn4ncccc34)n2)c1` : 7

Response field %Inh (CDC2L2) for item `COC(=O)Nc1nc2cc(Oc3ccc(NC(=O)Nc4cc(C(F)(F)F)ccc4Cl)cc3)ccc2[nH]1.Cl` : 12

Response field %Inh (CDC2L2) for item `CN(c1ccc2c(c1)nc(NCc1ccc(F)cc1)n2C)c1ccnc(Nc2ccc(CS(C)(=O)=O)cc2)n1.Cl` : 92.6

----------
# Test system: MYO3A
# setup.conditions: concentration: 1 μM,replicates: in singlicate; n = 1
measurement.kind: %Inh (%)
Numeric answer only, unit % assumed.

Reported %Inh ( `CCn1c(-c2nonc2N)nc2cncc(Br)c21` ) = 39

Reported %Inh ( `CN1CCN(CCCNc2nccc(-c3c(-c4ccc(F)cc4)nn4cc(C(N)=O)ccc34)n2)CC1` ) = 10

Reported %Inh ( `COC(=O)Nc1nc2cc(Oc3ccc(NC(=O)Nc4cc(C(F)(F)F)ccc4Cl)cc3)ccc2[nH]1.Cl` ) = 11

Reported %Inh ( `C[C@@H]1CNc2c(sc3ccc4nc(-c5ccncc5)ccc4c23)C(=O)N1` ) = 0

----------
I'd appreciate it if you could supply %Inh values for the items below.
# System: HPK1
# setup.conditions: concentration: 1 μM,replicates: in singlicate; n = 1
Numeric answer only, unit % assumed.

Reported %Inh ( `Cc1ccc2c(-c3ccnc(Nc4ccc(C(F)(F)F)cc4)n3)cnn2n1` ) = 0

Reported %Inh ( `O=C(NCC1CC1)c1ccc(-c2cc(C(=O)NC3CC3)ccc2F)cc1` ) = 0

Reported %Inh ( `Cc1ccn2nc(-c3ccc(F)cc3)c(-c3ccncc3)c2c1.Cl` ) = 12

Reported %Inh ( `CC(=O)c1c(-c2ccncc2)[nH]c(-c2ccncc2)c1C` ) = 11

Reported %Inh ( `c1ccc(Oc2ccc(Nc3ccnc4ccc(-c5ccccn5)cc34)cc2)cc1` ) = 25

Reported %Inh ( `CS(=O)(=O)c1cccc(CNc2nc(Nc3ccc4c(c3)[C@@H]3C[C@@H]4CNC3=O)ncc2C(F)(F)F)c1` ) = 86

Reported %Inh ( `CCN1CCN(CCCC(=O)Nc2n[nH]c3nc(-c4ccc(O)cc4)c(Br)cc23)CC1` ) = 8

Reported %Inh ( `C[C@@H]1CNc2c(sc3ccc4nc(-c5ccncc5)ccc4c23)C(=O)N1` ) = 0

Reported %Inh ( `O=C(NOCC1CC1)c1cc(Br)c(F)c(F)c1Nc1ccc(I)cc1Cl` ) = 14

Reported %Inh ( `Cc1ccc(Nc2ccnc(Nc3ccc4c(c3)CS(=O)(=O)C4)n2)cc1O.Cl` ) = 62

Reported %Inh ( `C[C@@H]1CNc2c(sc3ccc4nc(-c5ccc(O)cc5)ccc4c23)C(=O)N1` ) = 6

----------
I'd appreciate it if you could supply %Inh values for the items below.
# Tested on: LTK
# setup.conditions: concentration: 1 μM,replicates: in singlicate; n = 1
Numeric answer only, unit % assumed.

Reported %Inh ( Cc1nnc(-c2ccc3occ(-c4ccc(S(C)=O)cc4)c3n2)o1 (centres unmarked) ) = 0

Reported %Inh ( Cl.Nc1n[nH]c2cc(-c3ccccn3)ccc12 [GSK2189892] ) = 0

Reported %Inh ( Cc1ccc2c(-c3ccnc(Nc4ccc(C(F)(F)F)cc4)n3)cnn2n1 [GW819776] ) = 28

Reported %Inh ( CCn1c(-c2nonc2N)nc2cncc(Br)c21 [SB-738004] ) = 0

Reported %Inh ( `C[C@@H]1CNc2c(sc3ccc4nc(-c5ccncc5)ccc4c23)C(=O)N1` ) = 65

----------
# Tested on: ERBB4
# setup.conditions: concentration: 1 μM,replicates: in singlicate; n = 1
%Inh strictly less than 60% = rule met. Otherwise rule not met.

Input line: Field: below-cutoff. Rule: recorded %Inh strictly less than 60%. Subject: CS(=O)c1ccc(-c2coc3ccc(-c4n[nH]c(=O)o4)cc23)cc1 (stereo not shown)
Output line: rule met

Input line: Field: below-cutoff. Rule: recorded %Inh strictly less than 60%. Subject: `C[C@@H]1CNc2c(sc3ccc4nc(-c5ccc(O)cc5)ccc4c23)C(=O)N1`
Output line: rule met

Input line: Field: below-cutoff. Rule: recorded %Inh strictly less than 60%. Subject: COc1cc2c(Nc3ccc(NC(=O)c4ccccc4)cc3)ncnc2cc1OCCCN1CCOCC1 [GSK301329]
Output line: rule not met

Input line: Field: below-cutoff. Rule: recorded %Inh strictly less than 60%. Subject: Cc1ccc(Nc2ccnc(Nc3ccc4c(c3)CS(=O)(=O)C4)n2)cc1O.Cl [GW579362]
Output line: rule not met

Input line: Field: below-cutoff. Rule: recorded %Inh strictly less than 60%. Subject: COC(=O)c1cccc(NC(=O)NC2CCN(c3ccnc(NCc4ccc(F)cc4)n3)CC2)c1 [GSK1379860]
Output line: rule met

Input line: Field: below-cutoff. Rule: recorded %Inh strictly less than 60%. Subject: CN1CCN(CCCNc2nccc(-c3c(-c4ccc(F)cc4)nn4cc(C(N)=O)ccc34)n2)CC1 [GW622475]
Output line: rule not met

Input line: Field: below-cutoff. Rule: recorded %Inh strictly less than 60%. Subject: `Cn1ccc2ncnc(Oc3ccc(NC(=O)Nc4cccc(C(F)(F)F)c4)c(Cl)c3)c21`
Output line: rule met

----------
# Test system: RET
# setup.conditions: concentration: 1 μM,replicates: in singlicate; n = 1
I'd appreciate it if you could supply %Inh values for the items below.
Numeric answer only, unit % assumed.

Reported %Inh ( Cc1ccc(CC(=O)N2CCc3cc(-c4cn(C)c5ncnc(N)c45)ccc32)cc1 [GSK2634758] ) = 7

Reported %Inh ( `Cc1ccc(C(=O)Nc2ccc(Oc3ccc4nc(NC(=O)C5CC5)cn4c3)c(F)c2)c(=O)n1-c1ccccc1` ) = 100

Reported %Inh ( C[C@@H](Oc1cc(-n2cnc3cc(-c4ccncc4)ccc32)sc1C(N)=O)c1ccccc1Cl [GSK479719] ) = 36

Reported %Inh ( Cl.Cl.NC[C@H](CC1CCCCC1)NC(=O)c1ccc(-c2ccnc3[nH]ccc23)s1 [GSK1581428] ) = 38

Reported %Inh ( Cc1cccc(-c2nc(Nc3ccncc3)c3sccc3n2)n1 [GW869641] ) = 31

Reported %Inh ( Cc1cccc2c(-c3ccncc3)c(-c3ccc(F)cc3)nn12.Cl [GW461487] ) = 18

Reported %Inh ( `Cn1cc(-c2cccc3c(N)c(C(N)=O)nnc23)cn1` ) = 12

Reported %Inh ( COc1cccc(C2=C(Nc3cccc(Cl)c3)C(=O)NC2=O)c1 [SB-341556] ) = 37

Reported %Inh ( COc1cccc(OC)c1C(=O)Nc1cccc(-c2nn3ccccc3c2-c2ccnc(Nc3cccc(F)c3)n2)c1 [GSK361065] ) = 90.1

Reported %Inh ( CSc1nccc(-c2c(-c3ccc(F)cc3)ncn2CCCN2CCOCC2)n1.Cl [SB-217146] ) = 2

Reported %Inh ( CCN1CCN(CCCC(=O)Nc2n[nH]c3nc(-c4ccc(O)cc4)c(Br)cc23)CC1 [SB-731579] ) = 23

Reported %Inh ( CN1CCN(CCNc2nc3cc(Oc4ccc(NC(=O)Nc5cc(C(F)(F)F)ccc5F)cc4)ccc3[nH]2)CC1.Cl.Cl [GW768504] ) = 99.9

Reported %Inh ( CCCC(=O)Nc1n[nH]c2ncccc12 [SB-601436] ) = 0

Reported %Inh ( Nc1nccc(-c2ccc3c(N)n[nH]c3c2)n1 [GSK1034945] ) = 9

Reported %Inh ( NC(=O)Nc1sc(-c2ccc(F)cc2)cc1C(N)=O [GW789449] ) = 55

Reported %Inh ( `Cn1ccc2ncnc(Oc3ccc(NC(=O)Nc4cncc(C(F)(F)F)c4)c(Cl)c3)c21` ) = 100

Reported %Inh ( `Cn1ccc2ncnc(Oc3ccc(NC(=O)Nc4ccnc(C(F)(F)F)c4)c(Cl)c3)c21` ) = 100

Reported %Inh ( `C[C@@H]1CNc2c(sc3ccc4nc(-c5ccncc5)ccc4c23)C(=O)N1` ) = 14

Reference for the values: paper PMC5540273
